test system: K-562; assay: SRB colorimetric assay of cell growth and viability, K-562; format: cell-based, human; conditions: 48 hours exposure, SRB; read-out: LC50 K-562
Where a SMILES comes first, the peptide text is derived from it. Bridges are numbered along the chain shown (N, C = ends). [ ]: non-standard residue; d: D form. The star is where a group is joined. d(aIle) = CC[C@H](C)[C@@H](N)C(=O)O; d(aThr) = C[C@@H](O)[C@@H](N)C(=O)O; Hexanoyl(5-Me) = CC(C)CCCC(=O)*; Orn = NCCC[C@H](N)C(=O)O; Dhb = C/C=C(\N)C(=O)O; Aib = CC(C)(N)C(=O)O; Dha = C=C(N)C(=O)O
Quantity Kind: CC50

Value of CC50 reported for the compound C/C=C1\NC(=O)[C@H](Cc2ccccc2)NC(=O)[C@@H](C(C)C)NC(=O)[C@@H]([C@@H](C)CC)NC(=O)[C@H](NC(=O)[C@H](NC(=O)[C@H](CCCN)NC(=O)[C@H]2CCCN2C(=O)[C@H](NC(=O)[C@@H](NC(=O)[C@H](CCC(N)=O)NC(=O)CCCC(C)C)C(C)C)C(C)C)[C@@H](C)CC)[C@@H](C)OC(=O)[C@H](C(C)C)NC1=O [Compound 58, [Gln^12, noD-Val^13]-KF] ({Hexanoyl(5-Me)}-QV[dV][dP][Orn][d(aIle)][d(aThr)][d(aIle)][dV]F[Dhb]V; ester 7-C) is ≥ 7.11 µM

Sure, the documented CC50 for C/C=C1\NC(=O)[C@H](Cc2ccccc2)NC(=O)[C@@H](C(C)C)NC(=O)[C@@H]([C@@H](C)CC)NC(=O)[C@H](NC(=O)[C@H](NC(=O)[C@H](CCCNC(=O)C(F)(F)F)NC(=O)[C@H]2CCCN2C(=O)[C@H](NC(=O)[C@@H](NC(=O)[C@@H](NC(=O)[C@H](NC(=O)CC[C@@H](C)CC)C(C)C)[C@@H](C)O)C(C)C)C(C)C)[C@@H](C)CC)[C@@H](C)OC(=O)[C@H](C(C)C)NC1=O [Compound 96] is 6.35 µM

// field: CC50; key: CC[C@H](C)[C@@H](NC(=O)[C@H](CCCN)NC(=O)[C@H]1CCCN1C(=O)[C@H](NC(=O)[C@@H](NC(=O)[C@@H](NC(=O)[C@H](NC(=O)CCCC(C)C)C(C)C)[C@@H](C)O)C(C)C)C(C)C)C(=O)N[C@H]1C(=O)N[C@H]([C@@H](C)CC)C(=O)N[C@H](C(C)C)C(=O)N[C@@H](Cc2ccccc2)C(=O)NC(C)(C)C(=O)N[C@@H](C(C)C)C(=O)O[C@@H]1C [Compound 66, [Aib^2]-KF] ({Hexanoyl(5-Me)}-[dV]TV[dV][dP][Orn][d(aIle)][d(aThr)][d(aIle)][dV]F[Aib]V; ester 8-C) ; value = ≥ 6.76 µM

Measured CC50, C=C1NC(=O)[C@H](Cc2ccccc2)NC(=O)[C@@H](C(C)C)NC(=O)[C@@H]([C@@H](C)CC)NC(=O)[C@H](NC(=O)[C@H](NC(=O)[C@H](CCCN)NC(=O)[C@H]2CCCN2C(=O)[C@H](NC(=O)[C@@H](NC(=O)[C@@H](NC(=O)[C@H](NC(=O)CCCC(C)C)C(C)C)[C@@H](C)O)C(C)C)C(C)C)[C@@H](C)CC)[C@@H](C)OC(=O)[C@H](C(C)C)NC1=O [Compound 67, [Dha^2]-KF] ({Hexanoyl(5-Me)}-[dV]TV[dV][dP][Orn][d(aIle)][d(aThr)][d(aIle)][dV]F[Dha]V; ester 8-C) : ≥ 6.83 µM

Reported CC50 for C/C=C1\NC(=O)[C@H](Cc2ccccc2)NC(=O)[C@@H](C(C)C)NC(=O)[C@@H]([C@@H](C)CC)NC(=O)[C@H](NC(=O)[C@H](NC(=O)[C@H](CCCN)NC(=O)[C@H]2CCCN2C(=O)[C@H](NC(=O)[C@@H](NC(=O)[C@@H](NC(=O)[C@H](NC(=O)CC[C@@H](C)CC)C(C)C)[C@@H](C)OC(=O)C(F)(F)F)C(C)C)C(C)C)[C@@H](C)CC)[C@@H](C)OC(=O)[C@H](C(C)C)NC1=O [Compound 94] was 6.35 µM

---

System: PANC-1
Assay: SRB colorimetric assay of cell growth and viability, PANC-1
Assay type: cell-based, human
Details: 48 hours exposure, SRB; read-out: LC50 PANC-1
Method: The finality of this assay is to interrupt the growth of a “in vitro” tumor cell culture by means a continued exhibition of the cells to the sample to be testing. […] Cells are seeded in 96 well microtiter plates, at 5×10^3 cells per well in aliquots of 195 μL medium, and they are allowed to attach to the plate surface by growing in drug free medium for 18 hours. […] Optical densities are read on a automated spectrophotometric plate reader at a single wavelength of 490 nm. […]
Where a SMILES comes first, the peptide text is derived from it. Bridges are numbered along the chain shown (N, C = ends). [ ]: non-standard residue; d: D form. The star is where a group is joined. d(aIle) = CC[C@H](C)[C@@H](N)C(=O)O; d(aThr) = C[C@@H](O)[C@@H](N)C(=O)O; Hexanoyl(5-Me) = CC(C)CCCC(=O)*; Orn = NCCC[C@H](N)C(=O)O; Dhb = C/C=C(\N)C(=O)O
Quantity Kind: CC50 (µM)
Give a bare numeral; the unit µM is implied.

get_value(item= C/C=C1\NC(=O)[C@H](Cc2ccccc2)NC(=O)[C@@H](C(C)C)NC(=O)[C@@H]([C@@H](C)CC)NC(=O)[C@H](NC(=O)[C@H](NC(=O)[C@H](CCCC[N+](C)(C)C)NC(=O)[C@H]2CCCN2C(=O)[C@H](NC(=O)[C@@H](NC(=O)[C@@H](NC(=O)[C@H](NC(=O)CC[C@@H](C)CC)C(C)C)[C@@H](C)O)C(C)C)C(C)C)[C@@H](C)CC)[C@@H](C)OC(=O)[C@H](C(C)C)NC1=O [Compound 93, [N^ε(Me)3-Lys^8, (4S)-MeHex^14]-KF] , readout=CC50) returns 3.9

Per the record, C/C=C1\NC(=O)[C@H](Cc2ccc(I)cc2)NC(=O)[C@@H](C(C)C)NC(=O)[C@@H]([C@@H](C)CC)NC(=O)[C@H](NC(=O)[C@H](NC(=O)[C@H](CCCN)NC(=O)[C@H]2CCCN2C(=O)[C@H](NC(=O)[C@@H](NC(=O)[C@@H](NC(=O)[C@H](NC(=O)CC[C@@H](C)CC)C(C)C)[C@@H](C)O)C(C)C)C(C)C)[C@@H](C)CC)[C@@H](C)OC(=O)[C@H](C(C)C)NC1=O [Compound 72, [Phe(4-I)^3, (4S)-MeHex^14]-KF] has CC50 of 3.2

Please fill in: CC50 reported for "C/C=C1\NC(=O)[C@H](Cc2ccccc2)NC(=O)[C@@H](C(C)C)NC(=O)[C@@H]([C@@H](C)CC)NC(=O)[C@H](NC(=O)[C@H](NC(=O)[C@H](CCCN)NC(=O)[C@H]2CCCN2C(=O)[C@H](NC(=O)[C@@H](NC(=O)[C@@H](NC(=O)[C@H](NC(=O)CC[C@@H](C)CC)C(C)C)[C@@H](C)OC(=O)C(F)(F)F)C(C)C)C(C)C)[C@@H](C)CC)[C@@H](C)OC(=O)[C@H](C(C)C)NC1=O" = 6.35

C/C=C1\NC(=O)[C@H](Cc2ccc([N+](=O)[O-])cc2)NC(=O)[C@@H](C(C)C)NC(=O)[C@@H]([C@@H](C)CC)NC(=O)[C@H](NC(=O)[C@H](NC(=O)[C@H](CCCN)NC(=O)[C@H]2CCCN2C(=O)[C@H](NC(=O)[C@@H](NC(=O)[C@@H](NC(=O)[C@H](NC(=O)CC[C@@H](C)CC)C(C)C)[C@@H](C)O)C(C)C)C(C)C)[C@@H](C)CC)[C@@H](C)OC(=O)[C@H](C(C)C)NC1=O [Compound 73, [Phe(4-NO2)^3, (4S)-MeHex^14]-KF] has a reported CC50 of 3.58

Entry "C/C=C1\NC(=O)[C@H](Cc2ccccc2)NC(=O)[C@@H](C(C)C)NC(=O)[C@@H]([C@@H](C)CC)NC(=O)[C@H](NC(=O)[C@H](NC(=O)[C@H](CCCNC(=O)C(F)(F)F)NC(=O)[C@H]2CCCN2C(=O)[C@H](NC(=O)[C@@H](NC(=O)[C@@H](NC(=O)[C@H](NC(=O)CC[C@@H](C)CC)C(C)C)[C@@H](C)O)C(C)C)C(C)C)[C@@H](C)CC)[C@@H](C)OC(=O)[C@H](C(C)C)NC1=O" ; CC50 = 6.35

According to the records, this compound C/C=C1\NC(=O)[C@H](Cc2c[nH]c3ccccc23)NC(=O)[C@@H](C(C)C)NC(=O)[C@@H]([C@@H](C)CC)NC(=O)[C@H](NC(=O)[C@H](NC(=O)[C@H](CCCN)NC(=O)[C@H]2CCCN2C(=O)[C@H](NC(=O)[C@@H](NC(=O)[C@@H](NC(=O)[C@H](NC(=O)CCCC(C)C)C(C)C)[C@@H](C)O)C(C)C)C(C)C)[C@@H](C)CC)[C@@H](C)OC(=O)[C@H](C(C)C)NC1=O [Compound 68, [Trp^3]-KF] ({Hexanoyl(5-Me)}-[dV]TV[dV][dP][Orn][d(aIle)][d(aThr)][d(aIle)][dV]W[Dhb]V; ester 8-C) displays CC50 of 6.59

Value of measured CC50 for the entry C/C=C1\NC(=O)[C@H](Cc2c(F)c(F)c(F)c(F)c2F)NC(=O)[C@@H](C(C)C)NC(=O)[C@@H]([C@@H](C)CC)NC(=O)[C@H](NC(=O)[C@H](NC(=O)[C@H](CCCN)NC(=O)[C@H]2CCCN2C(=O)[C@H](NC(=O)[C@@H](NC(=O)[C@@H](NC(=O)[C@H](NC(=O)CC[C@@H](C)CC)C(C)C)[C@@H](C)O)C(C)C)C(C)C)[C@@H](C)CC)[C@@H](C)OC(=O)[C@H](C(C)C)NC1=O [Compound 71, [Phe(F5)^3, (4S)-MeHex^14]-KF] : 6.38
